B1: PCMTD2 (parent)
chain: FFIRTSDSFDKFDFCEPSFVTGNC

Variants of: B1
run-description: protein stability index of a GFP-peptide fusion (GPS, HEK-293T) (PSI 1-6); higher = more stable;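 further: lentivirally expressed fusions sorted by FACS into six bins by GFP to DsRed ratio, PSI derived from sequencing read proportions per bin multiplied by bin number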
stated-conditions: c terminus: a fixed tail appended
Binary call on protein stability index: Criterion met from 2 upward, Criterion not met beneath that.

    mutant_designation           category
 0                F12S  Criterion not met
 1                D13R      Criterion met
 2                E16H      Criterion met
 3                F12D  Criterion not met
 4                 I3T      Criterion met
 5                 F2A      Criterion met
 6                V20M      Criterion met
 7                D13H      Criterion met
 8                C15Y      Criterion met
 9                 F2M  Criterion not met
10                N23I      Criterion met
11                P17Q      Criterion met
12                 D7I      Criterion met
13                F14T      Criterion met
14                P17T      Criterion met
